# method_notes: soluble fraction after stress (log2 fold change); higher = more stays soluble; pooled small domains, quantitative proteomics
# experimental_parameters: stress: 50 degC
metric_name: soluble fraction (log2)

HMANPRLEYFLSNITPDWNEFSPELKNQLLIENADPYKLEQYILQVSPDMYIEEQNAPGTVRQMAGDITG; 0.09
HMTYKHLTIDEMKRFLSTREDSQSALVQFARVENVVGNRKGKYAVIKKWFLKNYKEEYNAFLS; -0.17
HMPKRSKDEAELEFLEMLRDNQVDSTWSFGKIISQLGSTDPRYWMVDDDPLWKRQIFEKYLSNR; -0.292
HMSWAGRRSLAALEARYRDETGISNLKIKHNGVLGYHIEVPSKSADKLMAPDSGFTHRQTLAGAVR; 0.0529
HMLLLHINQMGVTEFSQLELNHVRSWLANLQIKGAARSSITRRVVSVRAFTYWGAKNGWLASDIGRDLVAP; -0.277
HMDPKWSHVRRLLDDENPIVRKALTEELIRSPEEGLAFLEQVIREPDHLLAKHAHNLLSELGWV; 0.0264
HMTQGIDQISFSQFLDKVQSGEVTDVRISGSDITGTLKTGGKFETVAGNYEKIWDLLRENKVVFVVDSP; 0.0436
HMNMAEETLDTAAKILKAAEEEFMEKGYGNAKMMSIAARAGVSHSMLHYYYRSKGKLFQMIFDEKA; -1.4
HMSKKLLVLQTSDDAKAKDVLSQNGYQLDDGDKLSIIETEQTKMADVIKLLSDNAIDIEDVQHVH; 0.217
HMSKLQKTKYAGVYFTEDTQTRVKTYVARIVLAGIIDTEVVVGHSNDQHRTNAAIAYQRRLELIQEAKN; -3.86
HMNLQAYQSVLDKLNEEYGTTFRFPTEEELHEVGLTNTVDPRTATVSATEFEKYMRPIAERISQANL; -0.00884
HMPMTRILFLPDDRTILQFDSAEPAEDLVSAVNAGRWLPPEPYRSGFGLGLPENRLRASRQGALVVVMLS; -0.967
HMSTTGIVKWFNEEKGFGFITQDQGGADVFVHYRAIASEGFKTLAEGQKVSFEVEQGQKGLQAANVQA; 0.0843
HMGMVEFEIGERDHSEDVSRKLFEAGLIEDASDFNQYMIEKKMDDHLQTGKYQIPKGATKDEILELIVR; -0.00544
HMHPFELNTVTEGQLKRLPFLSDLQIRELLEYRSRYGKMLTLYELKNVEAFDLETISLLVPFIYISEI; -1.38
HMDAEKHIVTPEAGLRLDRALTDALPNLSRSRVKQLINEGLVTTENKTITAPSYRVKYGDSFEISIPPPT; -0.0636

====

# method_notes: soluble fraction after stress (log2 fold change); higher = more stays soluble; pooled small domains, quantitative proteomics
# experimental_parameters: stress: 50 degC
Readings of soluble fraction (log2) for the listed sequences
metric_name: soluble fraction (log2)

HMLPIMDRLITAGISINTAKKWVDKFGDKRIKQNLAYSLAKQKEGKVKTNFVGYLAKAIEEDWGSGWE; -0.557
HMNMLGEQVRNIRKSRGFTLKALAEQTGLSIGYISQIERNLTDPSLSTLRKISAALDVPTYLFMG; -1.55
HMVLSKGAKELLDFIMREGEVTTSKVVQKFGGSAQNASAKLKKLYATGLILGSKAVAESGGLEFVYKA; 0.393
HMNTPALRQRTQDVPALLIHFAKYFATKGQTPISFAPDFLEALKDYPWPGNVRELRNLVESMVV; -0.0746
HMAQELPYEKVTMNGKMFYVYHVKAGEGLYLISRTFSVNADEILKFNPSIENGLKSGQVLYIPIK; -0.0691
HMAGLKERLFYFIEYKGLTVQSFEKTVGLSNGAVSKMGDNTRRSTIDKISNFFGDLNKNWLLTGEGEMLI; -0.99
HMAYRLDVRNQTKGTYLVIQKKYWDKEKKQSRTKHHMSLGYVHDLQKLYSDPITHYKEVINQMNAEEKG; -1.54
HMKNEQESIAQKLYEAALKNDFVTIQEIQSGGYRLRNDDLTHMRESGVQSNTLIAIQKIFGL; 0.398
HMDVSVPDVTGTRLDRAQSLLEAQGLTLGKVEEFFHATEPAGIVYDQEPRPGTRVDEGTAISVSVSKGPEA; 0.0552
HMDPEQLKIAINTKMPFGKYSGRPLLLLPEPYLVWFKQQGFPDSKLGSQLAMMYEVKLNGLEQMLMPLL; -0.673
HMDIDNDIIENILVMGVTKAIAINLSNEFERHRIIANIEYAKEKSKNSEIKNISAFTVEAIRQDYANS; -1.1
HMVSAEQNTLEFIKENVKEDVIEDDIEFYKSLLEDWSVEVDNSSKLLDPGNNNSLLAVIAYSIENEL; -0.0399
HMDGFVFVMPIKETRMFSVNDERPLVGIVKYSNGEFEKEQLIGFRPNSEYEFIIEGQRLYRVPVNSITIK; -0.886
HMSVEVADITRAYYEGVGFEWWIRSVRLDPNELIVDNDDEGKLYRVPFEINGEEVTFGDPVEVKIRYE; -0.541
HMSSIRDVVPEGLLSDREKLVLVLAFDRDLDGPDMARTLGISANTVRVLKARALKKLRQAGIQP; -0.957
HMHEIVDTVLQVKQSVEADPLIAPALKNKEIVFQLNAKGVFQFKNAVIQVASALGISKNTVYMHLRNNK; -1.89
HMGAPVIYELTAESAAGQRIDKYLSGQLADLSRSYLQKLLKDGGVEVNKKPVKSNYKLSEGDQIRLEVPEA; 0.207
HMLLRVGGLVKDGSVRTDNDLGIKFIIEDNLAEVSVLYNGILPDLFREGQGVIAEGKFIDNIFIANEIVA; -0.519
HMVSFAEQASDWLAHFDRLGDVGPDTTLTDLTARDAEFSAWVNEGIHHRVAFLETLAAWHRTER; -0.774
HMTETSKLTDAKQLLESILSSGEVSYKDIISAAEEYEIGKRTLMSAKALLSIESIKKTDGWYWTLPH; -0.213
HMVKETNYSFFLKQIDAGTVEQVQIEDTEIKFKVSTADGKEQVYSTVRVEDPDLVDRLYSKGNIDFTGN; -0.0595
HMKTITVEDEQAGKRLDKALAELFPHYSRSALEKLIKEGQVLVNKSFVKSKYSLKLGDEISLQFEQL; 0.173
HMSLSDADVERLLEVAIDIESLEEREGLYYQANESEPYSGWGKLMYDSGQVERLVPYKDGRWEGLWTIW; -1.04
HMTAQGDSSDAVQRAITEILRHEDPSHPFSDQQLVIKLRTMDISVSRRTVTKYRKLLHIPSSTHRK; -2.74
HMKYGPSTVAVLTVVRESEMGAFLDAETGRTNDDILLHKTQQTEPVHIGDQVKVFLYLDPKHRLTASMRVP; -1.16
HMVDPWLEQVHRASAAYATAHGSARIPTTHPDLGWKVVRVRQRHRKGLLSDEWVAKFEALPGWTWEPK; -0.282
HMSDAPLLSIRSLAVAFDGTRVVDGVSFDVARGEVVALVGESGSGKTVTGLSLLDLVPPPGRRVGGEV; 0.0423
